Measured MIC, listed per entry for reference.
# Test system: Talaromyces funiculosus
# experimental.protocol: Antifungal activity against Penicillium funiculosum ATCC 11797 incubated for 24 hrs by serial dilution method
# Assay type: functional
# protocol.conditions: ATCC 11797, 24 h
parameter: MIC (µg/mL)

{"columns": ["molecule", "reading"],
 "data": [
  ["O=C1Oc2ccccc2N/C1=C\\C(=O)c1ccc(-c2ccccc2)cc1", 25],
  ["O=C1Oc2ccccc2N/C1=C\\C(=O)c1ccc(C2CCCCC2)cc1", 50],
  ["CC(=O)N1CCN(c2ccc(OCC3COC(Cn4ccnc4)(c4ccc(Cl)cc4Cl)O3)cc2)CC1 (stereo not given)", 25],
  ["O=C1Oc2cc([N+](=O)[O-])ccc2N/C1=C\\C(=O)c1ccc(C2CCCCC2)cc1", 100],
  ["O=C1Oc2cc([N+](=O)[O-])ccc2N/C1=C\\C(=O)C1CC1", 100]
]}

---

# System: Escherichia coli
# experimental.protocol: Antibacterial activity against Escherichia coli MTCC 443 at 100 ug/ml incubated for 12 hrs by agar disc diffusion assay
# Assay type: functional
# protocol.conditions: MTCC 443, 12 h, read-out: IZ
Measured zone of inhibition at 100 µg/mL, listed per entry for reference.
parameter: zone of inhibition at 100 µg/mL (mm)

{"columns": ["mol", "parameter", "reading"],
 "data": [
  ["O=C1Oc2ccccc2N/C1=C\\C(=O)c1ccc(-c2ccccc2)cc1", "zone of inhibition at 100 µg/mL", 14],
  ["O=C1Oc2ccccc2N/C1=C\\C(=O)c1ccc(C2CCCCC2)cc1", "zone of inhibition at 100 µg/mL", 8],
  ["O=C1Oc2ccc([N+](=O)[O-])cc2N/C1=C\\C(=O)c1ccc(C2CCCCC2)cc1", "zone of inhibition at 100 µg/mL", 18],
  ["Cc1ccc2c(c1)N/C(=C\\C(=O)C1CC1)C(=O)O2", "zone of inhibition at 100 µg/mL", 8],
  ["O=C1Oc2ccc([N+](=O)[O-])cc2N/C1=C\\C(=O)c1ccc(-c2ccccc2)cc1", "zone of inhibition at 100 µg/mL", 16],
  ["O=C1Oc2cc([N+](=O)[O-])ccc2N/C1=C\\C(=O)C1CC1", "zone of inhibition at 100 µg/mL", 18],
  ["O=C1Oc2ccc(Cl)cc2N/C1=C\\C(=O)C1CC1", "zone of inhibition at 100 µg/mL", 10],
  ["O=C1Oc2cc([N+](=O)[O-])ccc2N/C1=C\\C(=O)c1cccc2ccccc12", "zone of inhibition at 100 µg/mL", 26],
  ["O=C(N[C@H](CO)[C@H](O)c1ccc([N+](=O)[O-])cc1)C(Cl)Cl", "zone of inhibition at 100 µg/mL", 32],
  ["O=C1Oc2ccc([N+](=O)[O-])cc2N/C1=C\\C(=O)c1cccc2ccccc12", "zone of inhibition at 100 µg/mL", 10]
]}

---

# experimental.protocol: Cytotoxicity against mouse NIH/3T3 cells assessed as cell viability at 50 ug/ml after 72 hrs by MTT assay relative to control
# Assay type: cell-based, NIH3T3
# protocol.conditions: read-out: Activity

{"columns": ["mol", "viability at 72 h, 50 ug/ml, %"],
 "data": [
  ["O=C1Oc2ccc([N+](=O)[O-])cc2N/C1=C\\C(=O)c1ccc(C2CCCCC2)cc1", 89.1],
  ["O=C1Oc2ccc([N+](=O)[O-])cc2N/C1=C\\C(=O)C1CC1", 86],
  ["O=C1Oc2cc([N+](=O)[O-])ccc2N/C1=C\\C(=O)c1ccc(C2CCCCC2)cc1", 89],
  ["O=C1Oc2ccc([N+](=O)[O-])cc2N/C1=C\\C(=O)c1ccc(-c2ccccc2)cc1", 83.5],
  ["O=C1Oc2ccc(Cl)cc2N/C1=C\\C(=O)C1CC1", 90.3],
  ["O=C1Oc2cc([N+](=O)[O-])ccc2N/C1=C\\C(=O)c1cccc2ccccc12", 88.9],
  ["O=C1Oc2cc([N+](=O)[O-])ccc2N/C1=C\\C(=O)C1CC1", 90.9]
]}

---

# System: Bacillus subtilis
# experimental.protocol: Antibacterial activity against Bacillus subtilis MTCC 10619 incubated for 24 hrs by serial dilution method
# Format: functional
# protocol.conditions: MTCC 10619, 24 h
parameter: MIC (µg/mL)

{"columns": ["mol", "measure.unit", "reading"],
 "data": [
  ["CC1(C)S[C@@H]2[C@H](NC(=O)[C@H](N)c3ccccc3)C(=O)N2[C@H]1C(=O)O", "µg/mL", 25],
  ["O=C1Oc2cc([N+](=O)[O-])ccc2N/C1=C\\C(=O)C1CC1", "µg/mL", 3.12],
  ["O=C1Oc2ccc([N+](=O)[O-])cc2N/C1=C\\C(=O)c1cccc2ccccc12", "µg/mL", 100],
  ["O=C1Oc2ccc([N+](=O)[O-])cc2N/C1=C\\C(=O)c1ccc(C2CCCCC2)cc1", "µg/mL", 12.5],
  ["O=C1Oc2ccc(Cl)cc2N/C1=C\\C(=O)C1CC1", "µg/mL", 100],
  ["O=C(N[C@H](CO)[C@H](O)c1ccc([N+](=O)[O-])cc1)C(Cl)Cl", "µg/mL", 6.25],
  ["O=C1Oc2cc([N+](=O)[O-])ccc2N/C1=C\\C(=O)c1ccc(-c2ccccc2)cc1", "µg/mL", 100],
  ["Cc1ccc2c(c1)N/C(=C\\C(=O)c1ccc(-c3ccccc3)cc1)C(=O)O2", "µg/mL", 25],
  ["O=C1Oc2cc([N+](=O)[O-])ccc2N/C1=C\\C(=O)c1ccc(C2CCCCC2)cc1", "µg/mL", 3.12],
  ["O=C1Oc2ccccc2N/C1=C\\C(=O)c1ccc(C2CCCCC2)cc1", "µg/mL", 6.25],
  ["O=C1Oc2ccc([N+](=O)[O-])cc2N/C1=C\\C(=O)c1ccc(-c2ccccc2)cc1", "µg/mL", 25]
]}

---

# experimental.protocol: Cytotoxicity against mouse NIH/3T3 cells assessed as cell viability at 25 ug/ml after 72 hrs by MTT assay relative to control
# Type: cell-based, NIH3T3
# protocol.conditions: read-out: Activity
Measured viability at 72 h, 25 ug/ml, listed per entry for reference.

{"columns": ["mol", "viability at 72 h, 25 ug/ml, %"],
 "data": [
  ["O=C1Oc2cc([N+](=O)[O-])ccc2N/C1=C\\C(=O)c1cccc2ccccc12", 93.5],
  ["O=C1Oc2cc([N+](=O)[O-])ccc2N/C1=C\\C(=O)C1CC1", 94.3],
  ["O=C1Oc2ccc(Cl)cc2N/C1=C\\C(=O)C1CC1", 99],
  ["O=C1Oc2cc([N+](=O)[O-])ccc2N/C1=C\\C(=O)c1ccc(C2CCCCC2)cc1", 97.8],
  ["O=C1Oc2ccc([N+](=O)[O-])cc2N/C1=C\\C(=O)c1ccc(-c2ccccc2)cc1", 91],
  ["O=C1Oc2ccc([N+](=O)[O-])cc2N/C1=C\\C(=O)C1CC1", 93.2],
  ["O=C1Oc2ccc([N+](=O)[O-])cc2N/C1=C\\C(=O)c1ccc(C2CCCCC2)cc1", 98.2]
]}

---

Measured MIC, listed per entry for reference.
# System: Staphylococcus aureus
# experimental.protocol: Antibacterial activity against Staphylococcus aureus MTCC 3381 incubated for 24 hrs by serial dilution method
# Assay type: functional
# protocol.conditions: MTCC 3381, 24 h
parameter: MIC (µg/mL)

{"columns": ["mol", "reading"],
 "data": [
  ["O=C1Oc2ccc([N+](=O)[O-])cc2N/C1=C\\C(=O)c1ccc(-c2ccccc2)cc1", 6.25],
  ["O=C1Oc2cc([N+](=O)[O-])ccc2N/C1=C\\C(=O)C1CC1", 12.5],
  ["CC1(C)S[C@@H]2[C@H](NC(=O)[C@H](N)c3ccccc3)C(=O)N2[C@H]1C(=O)O", 12.5],
  ["O=C1Oc2ccc([N+](=O)[O-])cc2N/C1=C\\C(=O)c1ccc(C2CCCCC2)cc1", 6.25],
  ["O=C1Oc2ccc(Cl)cc2N/C1=C\\C(=O)C1CC1", 12.5],
  ["O=C1Oc2cc([N+](=O)[O-])ccc2N/C1=C\\C(=O)c1cccc2ccccc12", 100],
  ["O=C1Oc2ccccc2N/C1=C\\C(=O)C1CC1", 100],
  ["O=C1Oc2cc([N+](=O)[O-])ccc2N/C1=C\\C(=O)c1ccc(C2CCCCC2)cc1", 12.5],
  ["Cc1ccc2c(c1)N/C(=C\\C(=O)C1CC1)C(=O)O2", 12.5],
  ["Cc1ccc2c(c1)N/C(=C\\C(=O)c1ccc(-c3ccccc3)cc1)C(=O)O2", 12.5],
  ["O=C(N[C@H](CO)[C@H](O)c1ccc([N+](=O)[O-])cc1)C(Cl)Cl", 6.25],
  ["O=C1Oc2ccc([N+](=O)[O-])cc2N/C1=C\\C(=O)C1CC1", 100]
]}
